IC50 values for Receptor tyrosine-protein kinase erbB-2 (Homo sapiens) compiled from several publications are listed below.

>>> df
                                   molecule  reported_measurement
0  CN(C)C/C=C/C(=O)N1CCOc2c1ccc1ncnc(Nc3ccc(OCc4cc(F)ccc4F)cc3)c21               ≤ 50 nM

The measured IC50 that CCN1CCCC1CNc1ncnc(Nc2ccc(OC)c(OC)c2)n1 (stereo not shown) showed for Receptor tyrosine-protein kinase erbB-2 (Homo sapiens) is > 12600 nM

The measured IC50 that CC(C)c1nc(-c2cccc(NS(=O)(=O)c3c(F)cccc3F)c2)c(-c2ccnc(Nc3ccc(N4CCCNCC4)nc3)n2)s1 showed for Receptor tyrosine-protein kinase erbB-2 (Homo sapiens) is 100 to 1000 nM

The measured IC50 that CN(c1cccc(Cl)c1)c1ncnc(NC2CCN(Cc3ccccc3)CC2)n1 showed for Receptor tyrosine-protein kinase erbB-2 (Homo sapiens) is > 11000 nM

The measured IC50 that COc1ccc(Nc2ncnc(N(C)c3ccc4c(cnn4Cc4ccccc4)c3)n2)cc1OC showed for Receptor tyrosine-protein kinase erbB-2 (Homo sapiens) is < 856 nM

The measured IC50 that c1ccc(Cn2ncc3cc(Nc4ncnc(NCCN5CCCC5)n4)ccc32)cc1 showed for Receptor tyrosine-protein kinase erbB-2 (Homo sapiens) is > 10900 nM

The measured IC50 that CCNc1nc(-c2cccc(OC)c2)c(-c2ccnc(Nc3ccc(OCCN(C)C)c(C)c3)n2)s1 showed for Receptor tyrosine-protein kinase erbB-2 (Homo sapiens) is < 100 nM

The measured IC50 that COc1ccc(CNc2ncnc(Nc3ccc4c(cnn4Cc4ccccc4)c3)n2)cc1OC showed for Receptor tyrosine-protein kinase erbB-2 (Homo sapiens) is > 9620 nM

The measured IC50 that N#Cc1cnc2sc(C(=O)Nc3ccc(CN4CCC(N)CC4)cc3)c3c2c1N(c1c(Cl)ccc2c1OCO2)C(=O)N3 showed for Receptor tyrosine-protein kinase erbB-2 (Homo sapiens) is 1870 nM

The measured IC50 that COc1cc(Nc2ncnc(Nc3cc(OC)c(OC)c(OC)c3)n2)cc(OC)c1 showed for Receptor tyrosine-protein kinase erbB-2 (Homo sapiens) is 968 to 5810 nM
